Measured values drawn from patent US20240309087A1 for this set.

measured.target: T1, human CD112R on Jurkat CD112R effector cells (human, UniProt Q6DKI7 1-326)
T1 sequence (looked up): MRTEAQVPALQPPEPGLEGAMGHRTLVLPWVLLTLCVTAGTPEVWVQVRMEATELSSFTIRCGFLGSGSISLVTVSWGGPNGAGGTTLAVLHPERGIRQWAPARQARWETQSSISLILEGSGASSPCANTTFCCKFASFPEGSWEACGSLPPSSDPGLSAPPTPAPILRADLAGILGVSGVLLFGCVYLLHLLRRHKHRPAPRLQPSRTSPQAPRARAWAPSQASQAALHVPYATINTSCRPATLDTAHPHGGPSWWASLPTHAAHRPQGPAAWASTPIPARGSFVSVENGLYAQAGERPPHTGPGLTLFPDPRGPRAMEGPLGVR
assay.explanation: cell-based or functional assay
property.name: Relative activity (%), EC50 COM701/EC50 antibody
Write the number in % without appending the unit.

Illustrative cases are given below, each with its answer.
Hu8 (antibody, IgG4, V domains shown, humanized IgG4; also called Hu-08) VH: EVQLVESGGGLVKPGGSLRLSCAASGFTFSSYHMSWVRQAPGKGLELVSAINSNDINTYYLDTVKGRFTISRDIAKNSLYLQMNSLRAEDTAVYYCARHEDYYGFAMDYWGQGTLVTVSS VL: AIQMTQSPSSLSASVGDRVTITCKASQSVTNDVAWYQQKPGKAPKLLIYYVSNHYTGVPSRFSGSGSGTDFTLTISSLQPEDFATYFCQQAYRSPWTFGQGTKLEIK: 110
Hu30 (antibody, IgG4, V domains shown, humanized IgG4) VH: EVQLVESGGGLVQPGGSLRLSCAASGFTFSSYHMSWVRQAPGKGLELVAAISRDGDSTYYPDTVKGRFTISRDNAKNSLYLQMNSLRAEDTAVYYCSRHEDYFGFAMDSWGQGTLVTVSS VL: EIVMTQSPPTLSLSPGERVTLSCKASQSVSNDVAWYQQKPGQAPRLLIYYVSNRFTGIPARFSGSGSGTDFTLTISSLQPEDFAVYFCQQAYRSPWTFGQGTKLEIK: 184

(Q) Fill in the blank: the reported Relative activity (%), EC50 COM701/EC50 antibody of Hu35 (antibody, IgG4, V domains shown, humanized IgG4) VH: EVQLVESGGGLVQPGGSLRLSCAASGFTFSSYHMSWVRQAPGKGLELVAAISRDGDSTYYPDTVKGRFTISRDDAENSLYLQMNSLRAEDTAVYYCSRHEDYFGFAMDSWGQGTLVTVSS VL: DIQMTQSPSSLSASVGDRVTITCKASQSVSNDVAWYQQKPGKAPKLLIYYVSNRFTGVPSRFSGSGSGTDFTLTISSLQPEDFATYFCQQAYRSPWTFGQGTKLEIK is ____.
(A) 184
